Just for reference, patent US20260166039A1 is where these values come from.

# Test system: phosphorylation of Cdc2 Y15 (Wee1 substrate) in A427 cells
# EXPERIMENTAL_DETAILS: Phosphorylated Cdc2 MSD Electrochemiluminescence Assay
# Format: cell-based
# MEASUREMENT_CONDITIONS: Homo sapiens, A-427, pCDC2 MSD
Listing: IC50 of selected molecules

These solved cases illustrate the format of a correct answer.
INSERT INTO results (molecule, recorded_endpoint, observed_measurement) VALUES
  ('C[C@H]1COC(=O)N1c1cccc(N2c3nc(Nc4ccc(O[C@@H]5CCN(C)C5)cc4)ncc3[C@@]3(C)COC(C)(C)C[C@@H]23)n1 (single isomer, unassigned) [Example 331]', 'IC50', '100 to 1000 nM'),
  ('CNCc1cccc(N2c3nc(Nc4ccc(N5CCCOCC5)cc4)ncc3[C@@]3(C)COC(C)(C)C[C@@H]23)n1 (single isomer, unassigned) [Example 18]', 'IC50', '100 to 1000 nM');

Would you mind telling me what IC50 value was observed for CN1CC(c2ccc(Nc3ncc4c(n3)N(c3cccc(N=S(C)(C)=O)n3)[C@@H]3CC(C)(C)OC[C@]43C)cn2)C1 (single isomer, unassigned) [Example 192] ?
100 to 1000 nM

Would you mind telling me what IC50 value was observed for CC1(C)C[C@H]2N(c3cccc(N=S(C)(C)=O)n3)c3nc(Nc4cn(C5COC5)cn4)ncc3[C@@]2(C)CO1 (single isomer, unassigned) [Example 232] ?
1000 to 10000 nM

Would you mind telling me what IC50 value was observed for C[C@H]1COC(=O)N1c1cccc(N2c3nc(Nc4ccc([C@@H]5CCNC5)cc4)ncc3[C@@]3(C)COC(C)(C)C[C@@H]23)n1 (single isomer, unassigned) [Example 275] ?
100 to 1000 nM

Would you mind telling me what IC50 value was observed for CN1CC[C@H](n2ccc(Nc3ncc4c(n3)N(c3cccc(N=S(C)(C)=O)n3)[C@@H]3CC(C)(C)OC[C@]43C)n2)C1 (single isomer, unassigned) [Example 225] ?
1000 to 10000 nM

Would you mind telling me what IC50 value was observed for CNCc1cccc(N2c3nc(Nc4ccc(C5CCN(C)CC5)c(C)c4)ncc3[C@@]3(C)COC(C)(C)C[C@@H]23)n1 (single isomer, unassigned) [Example 72] ?
100 to 1000 nM

---

Listing: IC50 of selected molecules
# TARGET: Wee1 kinase domain (Homo sapiens, UniProt P30291)
# Construct: Wee1 kinase domain was purchased from Carna (catalog #05-177); purchased Carna 05-177
# Sequence (P30291 299-569 limits assumed): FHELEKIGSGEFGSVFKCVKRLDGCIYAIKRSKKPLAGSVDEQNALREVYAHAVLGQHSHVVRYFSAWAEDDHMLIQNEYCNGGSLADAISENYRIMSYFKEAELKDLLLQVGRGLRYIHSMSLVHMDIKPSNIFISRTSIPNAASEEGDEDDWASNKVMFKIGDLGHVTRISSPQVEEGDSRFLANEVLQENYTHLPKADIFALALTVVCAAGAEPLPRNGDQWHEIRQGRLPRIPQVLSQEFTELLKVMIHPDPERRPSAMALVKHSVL
# EXPERIMENTAL_DETAILS: Wee1 Kinase Biochemical Assay (ADP-Glo)
# MEASUREMENT_CONDITIONS: class symbols; 1 nM Wee1 enzyme, 15 uM ATP, 4 hours at 25° C.

These solved cases illustrate the format of a correct answer.
INSERT INTO measurements (molecule, recorded_endpoint, observed_measurement) VALUES
  ('CC1(C)C[C@@H]2N(c3cccc([C@H]4COCCN4)n3)c3nc(Nc4ccc(N5CCOCC5)cc4)ncc3[C@]2(C)CO1 [Example 732]', 'IC50', '0.01 to 0.1 µM'),
  ('CC1(C)C[C@@H]2N(c3cccc([C@H]4CCCN4)n3)c3nc(Nc4ccc(N5CCOCC5)cc4)ncc3[C@]2(C)CO1 (single isomer, unassigned) [Example 527]', 'IC50', '0.01 to 0.1 µM');

Would you mind telling me what IC50 value was observed for CN1CC[C@@H](c2ccc(Nc3ncc4c(n3)N(c3cccc(N5CCCC5=O)n3)[C@@H]3CC(C)(C)OC[C@]43C)cc2)C1 [Example 642] ?
< 0.01 µM

Would you mind telling me what IC50 value was observed for CN1C[C@@H]2C[C@H]1CN2c1ccc(Nc2ncc3c(n2)N(c2cccc(N4CCCC4=O)n2)[C@@H]2CC(C)(C)OC[C@]32C)cc1 [Example 629] ?
< 0.01 µM

Would you mind telling me what IC50 value was observed for CC1(C)C[C@@H]2N(c3cccc(N4CCCC4=O)n3)c3nc(Nc4ccc(O[C@@H]5CCNC5)cc4)ncc3[C@]2(C)CO1 [Example 617] ?
0.1 to 1 µM

Would you mind telling me what IC50 value was observed for CNCc1cccc(N2c3nc(Nc4ccc(-c5cnn(C)c5)c(C)c4)ncc3[C@@]3(C)COC(C)(C)C[C@@H]23)n1 (single isomer, unassigned) [Example 464] ?
< 0.01 µM

Would you mind telling me what IC50 value was observed for CN1C[C@H]2C[C@@H]1CN2c1ccc(Nc2ncc3c(n2)N(c2cccc(N4CCCC4=O)n2)[C@@H]2CC(C)(C)OC[C@]32C)cc1F [Example 638] ?
< 0.01 µM

Would you mind telling me what IC50 value was observed for CC1(C)C[C@H]2N(c3cccc([C@H]4CCCN4)n3)c3nc(Nc4ccc(N5CCOCC5)cc4)ncc3[C@@]2(C)CO1 (single isomer, unassigned) [Example 528] ?
< 0.01 µM

Would you mind telling me what IC50 value was observed for Cc1cc(Nc2ncc3c(n2)N(c2cccc(C(C)(C)O)n2)[C@@H]2CC(C)(C)OC[C@]32C)ccc1N1C[C@H]2C[C@@H]1CN2C (single isomer, unassigned) [Example 425] ?
< 0.01 µM

Would you mind telling me what IC50 value was observed for CN1C[C@@H]2C[C@H]1CN2c1ccc(Nc2ncc3c(n2)N(c2cccc(C(C)(C)O)n2)[C@@H]2CC(C)(C)OC[C@]32C)cc1Cl (single isomer, unassigned) [Example 435] ?
< 0.01 µM
